- Assay Protocol: Drug repurposing screens with cells derived from glioblastoma tumor samples (AID 1345199); also: % is scaled to controls: 0 for no effect and ±100 for the full control effect; nearly all actives have a fitted effect of over 40% in size
- Condition Set: GBM patient neurospheres viability, ATP luminescence, 48 h; at 21.2 µM (top of the series); tumour line B
Records with an inconclusive call do not appear.
Kindly supply the reported activity, negative = cell killing values for the records listed here.
Give bare numbers, in %.

Would you please look over these solved cases?
>  <Compound>
CC(C(=O)O)c1cccc(Oc2ccccc2)c1 (stereo unspecified)

>  <Unit>
%

>  <activity, negative = cell killing>
-4.71

$$$$
>  <Compound>
CCCCc1cc2ccccc2c(OCCN(C)C)n1

>  <Unit>
%

>  <activity, negative = cell killing>
-17.4

$$$$
>  <Compound>
C[N+]12CCC(CC1)C(OC(=O)C(O)(c1ccccc1)c1ccccc1)C2 (stereo unspecified)

>  <Unit>
%

>  <activity, negative = cell killing>
-10.6

$$$$
>  <Compound>
CNCCc1ccccn1

>  <Unit>
%

>  <activity, negative = cell killing>
-4.42

$$$$
>  <Compound>
COc1cc(NS(=O)(=O)c2ccc(N)cc2)ncn1

>  <Unit>
%

>  <activity, negative = cell killing>
4.65

$$$$

For every listed record, write down its activity, negative = cell killing.
1. CCCCNc1ccc(C(=O)OCCOCCOCCOCCOCCOCCOCCOCCOCCOC)cc1
2. CC(C)(C)NC[C@H](O)COc1cccc2c1CCCC2=O
3. Cc1c(-c2ccccc2)oc2c(C(=O)OCCN3CCCCC3)cccc2c1=O
4. CCN(CC)CCOC(=O)C(Cc1cccc2ccccc12)CC1CCCO1 (stereo unspecified)
5. CCO[C@@H]1O[C@H](C(COCc2ccccc2)OCc2ccccc2)[C@H](OCc2ccccc2)[C@H]1O (stereo partly specified)
6. COc1cc(C(=O)NCc2ccc(OCCN(C)C)cc2)cc(OC)c1OC

Result:
1. -6.92
2. -13.9
3. -10.2
4. -13.3
5. -8.94
6. -6.09

* * *

- Assay Protocol: qHTS of pediatric cancer cell lines to identify multiple opportunities for drug repurposing: Primary screen for BT-37 cells (AID 1347094);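 also: plate controls were DMSO for no effect and bortezomib for full effect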
- Condition Set: BT-37 viability, CellTiter-Glo luminescence, 48 h; series mostly up to 57.3 µM
Records with an inconclusive call do not appear. Calls of active or inactive are those of the source. The call rests on the fitted dose curve; in most records, active means well fitted cell-killing curve with a large enough effect; inconclusive means small, poorly fitted or top-dose-only effect; inactive means flat fitted curve, though single readings scatter.
The categories you may choose from are active, inactive

A selection of reference data follows.
>  <Molecule>
O=C(O)CCNC(=O)c1ccccc1

>  <Assigned Label>
inactive

$$$$
>  <Molecule>
Cc1c[nH]c2ccccc12

>  <Assigned Label>
inactive

$$$$
>  <Molecule>
C[C@]12CCC(=O)C=C1C=C[C@@H]1[C@@H]2CC[C@@]2(C)[C@H]1CC[C@@]21CCC(=O)O1

>  <Assigned Label>
inactive

$$$$
>  <Molecule>
Cc1ccccc1OCC(O)CO (stereo not drawn)

>  <Assigned Label>
inactive

$$$$
>  <Molecule>
COc1ccc(CN(CCN(C)C)c2ncccn2)cc1

>  <Assigned Label>
inactive

$$$$
>  <Molecule>
COc1ccc(C(=O)c2ccccc2)c(O)c1

>  <Assigned Label>
inactive

$$$$
>  <Molecule>
CCN(CC)CCNC(=O)COc1ccc(OC)cc1

>  <Assigned Label>
inactive

$$$$
>  <Molecule>
C=C[C@H]1CN2CC[C@H]1C[C@@H]2[C@@H](O)c1ccnc2ccc(OC)cc12

>  <Assigned Label>
inactive

$$$$

Ask: Short answer needed: outcome of this test for CN1CCN(c2c(F)cc3c(=O)c(C(=O)O)cn4c3c2SCC4)CC1 ?
Result: inactive

Ask: Test call for this molecule, please: CC(=C(CCOC(=O)C(C)C)SSC(CCOC(=O)C(C)C)=C(C)N(C=O)Cc1cnc(C)nc1N)N(C=O)Cc1cnc(C)nc1N
Result: inactive
